Source: PubChem BioAssay (NCI)

Tested on: DU-145 prostate
Assay: NCI-60 one-dose screen, 48 h
Details: 10 µM unless noted
Compounds without any hit were thinned out: in the full panel of roughly 83,000, 20% have a hit. The source made the active and inactive calls. How the source made its calls: active means growth percent below 10; inactive means the rest.
Pick one: active, inactive

Could you kindly confirm the outcome this assay logged for Fc1ccc(CNc2cccc3[nH]c(C(F)(F)F)nc23)cc1 ? inactive

For O=C1c2cc3c(cc2-c2c1c1cc(F)c(F)cc1c(=O)n2CCCn1ccnc1)OCO3 , which call appears in the assay record? active

Look up the recorded call for COc1ccc(CCNc2nc3c(c(=O)n(Cc4ccc(Br)cc4)c(=O)n3C)n2C)cc1OC in this test. inactive

Recorded test outcome, item FC(F)(F)c1[nH]ncc1-c1nc2ccc3n[nH]c(C#Cc4cccnc4)c3c2c2c1CCCC2 inactive

What did this assay record as the result for C[n+]1ccccc1/C=C/c1ccc2cccc(O)c2n1 ? inactive
